MEASURED_TARGET: DNA gyrase (Staphylococcus aureus, UniProt P0A0K8+P20831)
Construct: with DNA gyrase subunit B (GyrB)
Sequence (P0A0K8 2-644): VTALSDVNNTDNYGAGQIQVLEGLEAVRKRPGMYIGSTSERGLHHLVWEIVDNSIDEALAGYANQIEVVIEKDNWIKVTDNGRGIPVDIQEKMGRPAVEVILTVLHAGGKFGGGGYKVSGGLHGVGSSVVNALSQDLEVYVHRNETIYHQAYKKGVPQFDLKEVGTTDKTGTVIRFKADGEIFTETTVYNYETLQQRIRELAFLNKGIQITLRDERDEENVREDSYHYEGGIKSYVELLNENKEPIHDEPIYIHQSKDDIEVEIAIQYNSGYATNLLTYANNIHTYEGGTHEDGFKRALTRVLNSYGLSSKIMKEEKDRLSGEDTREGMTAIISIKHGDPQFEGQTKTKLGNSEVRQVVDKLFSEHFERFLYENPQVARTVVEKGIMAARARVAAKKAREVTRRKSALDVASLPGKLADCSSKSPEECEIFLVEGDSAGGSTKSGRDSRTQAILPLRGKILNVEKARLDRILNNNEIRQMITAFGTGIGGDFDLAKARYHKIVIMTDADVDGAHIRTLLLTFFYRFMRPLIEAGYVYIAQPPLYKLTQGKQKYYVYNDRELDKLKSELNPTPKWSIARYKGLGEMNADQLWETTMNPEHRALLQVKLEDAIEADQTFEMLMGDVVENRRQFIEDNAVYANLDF
Sequence (P20831 whole entry): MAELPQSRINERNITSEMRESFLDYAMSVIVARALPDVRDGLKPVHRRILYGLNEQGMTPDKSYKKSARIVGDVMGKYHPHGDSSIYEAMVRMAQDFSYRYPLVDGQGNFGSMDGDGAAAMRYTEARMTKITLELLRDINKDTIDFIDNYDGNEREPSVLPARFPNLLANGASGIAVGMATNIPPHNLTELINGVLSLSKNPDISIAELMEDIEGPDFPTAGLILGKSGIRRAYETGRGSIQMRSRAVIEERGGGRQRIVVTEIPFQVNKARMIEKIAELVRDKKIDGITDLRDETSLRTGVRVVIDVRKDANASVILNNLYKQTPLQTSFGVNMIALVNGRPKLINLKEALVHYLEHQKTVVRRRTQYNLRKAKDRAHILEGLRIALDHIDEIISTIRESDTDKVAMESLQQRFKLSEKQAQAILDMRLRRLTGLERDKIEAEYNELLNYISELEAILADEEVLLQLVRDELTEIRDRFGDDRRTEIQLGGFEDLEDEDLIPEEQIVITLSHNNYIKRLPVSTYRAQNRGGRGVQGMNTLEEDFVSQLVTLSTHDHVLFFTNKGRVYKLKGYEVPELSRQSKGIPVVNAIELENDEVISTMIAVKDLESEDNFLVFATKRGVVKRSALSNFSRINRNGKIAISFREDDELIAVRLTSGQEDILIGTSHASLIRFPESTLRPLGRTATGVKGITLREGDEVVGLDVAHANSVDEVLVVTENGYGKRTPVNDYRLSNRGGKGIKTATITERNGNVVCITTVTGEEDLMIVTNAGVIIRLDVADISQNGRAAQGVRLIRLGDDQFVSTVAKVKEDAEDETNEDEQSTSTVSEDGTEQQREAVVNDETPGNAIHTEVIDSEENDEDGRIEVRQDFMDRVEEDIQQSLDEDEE
EXPERIMENT: DNA gyrase supercoiling assay (H19 dye fluorescence, ProFoldin kit)
QUANTITY_NAME: pIC50
By convention, pIC50 is the negative base-10 log of a molar concentration.

input: Which value of pIC50 has been reported for O=C1c2ccccc2C(=O)c2sc(N3CCNCC3)nc21 in the records?
output: 3.43

These measurements were taken from paper PMC10975047.
